Taken from patent US10294202B2.

Plant response rating, Ragweed values for the compounds below.
Tested on: ragweed
Experiment: Test C pre-/postemergence herbicide test
Assay type: in vivo, Ambrosia elatior
Conditions: Postemergence, 62 g ai/ha; scale 0 (no effect) to 100 (complete control)

compound	Plant response rating, Ragweed
CN1CC(c2ccc(F)c(F)c2)C(C(=O)Nc2ccccc2F)C1=O (stereo not shown)	20
CN1CC(c2cccc(C(F)(F)F)c2)C(C(=O)Nc2ccccc2F)C1=O (stereo not shown)	35
CN1CC(c2ccc(F)cc2)C(C(=O)Nc2cccc(F)c2F)C1=O (stereo not shown)	40
O=C1NCC(c2cccc(C(F)(F)F)c2)C1C(=O)Nc1ccc(F)cc1F (racemic)	0
Cc1cccc(NC(=O)C2C(=O)NCC2c2cccc(C(F)(F)F)c2)c1 (stereo not shown)	0
O=C1NCC(c2cc(F)cc(F)c2)C1C(=O)Nc1cccc(F)c1F (racemic)	20
O=C1NCC(c2cccc(C(F)(F)F)c2)C1C(=O)Nc1cccc(Cl)c1F (stereo not shown)	0

----------
Tested on: foxtail, giant
Assay: Test C pre-/postemergence herbicide test
Assay type: in vivo, Setaria faberii
Conditions: Preemergence, 125 g ai/ha; scale 0 to 100 (0 no effect, 100 complete control)
Plant response rating, Foxtail, Giant values for the compounds below.

compound	Plant response rating, Foxtail, Giant
O=C1NCC(c2cc(F)cc(F)c2)C1C(=O)Nc1ccc(F)cc1F (racemic)	95
O=C1NCC(c2cccc(OC(F)F)c2)C1C(=O)Nc1ccccc1F (stereo not drawn)	90
O=C1NCC(c2ccc(Cl)c(F)c2)C1C(=O)Nc1ccccc1F (stereo not drawn)	65
O=C1NCC(c2cc(F)c(F)c(F)c2)C1C(=O)Nc1ccccc1C(F)(F)F (racemic)	98
O=C1NCC(c2cccc(Br)c2)C1C(=O)Nc1ccccc1F (stereo not drawn)	85
O=C1NCC(c2cccc(C(F)(F)F)c2)C1C(=O)Nc1cccc(F)c1F (stereo not drawn)	95

----------
Tested on: barnyardgrass
Assay: Test B flooded paddy test
Format: in vivo, Echinochloa crus-galli
Conditions: 1000 g ai/ha, Flood; scale of 0 to 100 where 0 is no effect and 100 is complete control
Plant response rating, Barnyardgrass values for the compounds below.
recorded-endpoint: Plant response rating, Barnyardgrass

compound	reported-value
CC(C)(C)c1cccc(C2CNC(=O)C2C(=O)Nc2ccccc2C(F)(F)F)c1 (racemic) [Compound 201]	20
O=C1NCC(c2ccc(C(F)(F)F)nc2)C1C(=O)Nc1ccccc1C(F)(F)F (racemic) [Compound 264]	0
O=C1NCC(c2ccc(-c3ccccc3C(F)(F)F)cc2)C1C(=O)Nc1cccc(F)c1F (stereo not drawn) [Compound 236]	40
O=C1NCC(c2ccc(Cl)c(C(F)(F)F)c2)C1C(=O)Nc1cccc(F)c1F (racemic) [Compound 268]	0
COc1ccc(C2CNC(=O)C2C(=O)Nc2ccccc2F)cc1F (racemic) [Compound 197]	30
O=C1NCC(c2ccc(C(F)(F)F)nc2)C1C(=O)Nc1ccccc1F (racemic) [Compound 262]	20
O=C1NCC(c2ccc(C(F)(F)F)c(Cl)c2)C1C(=O)Nc1ccccc1F (racemic) [Compound 249]	55
COc1ccc(C2CNC(=O)C2C(=O)Nc2ccccc2C(F)(F)F)cc1C(F)(F)F (stereo not drawn) [Compound 240]	70
O=C1NCC(c2ccc(C(F)(F)F)c(F)c2)C1C(=O)Nc1cccc(F)c1F (racemic) [Compound 247]	85

----------
Plant response rating, Waterhemp values for the molecules below.
System: waterhemp
Assay: Test C pre-/postemergence herbicide test
Type: in vivo, Amaranthus rudis
Settings: Postemergence, 125 g ai/ha; scale 0 to 100 (0 no effect, 100 complete control)
recorded-endpoint: Plant response rating, Waterhemp

molecule	reported-value
O=C1NCC(c2ccc(F)cc2)C1C(=O)Nc1cccc(F)c1F (racemic)	0
O=C1NCC(c2cccc(C(F)(F)F)c2)C1C(=O)Nc1cccc(Cl)c1F (stereo not drawn)	10
CN1CC(c2cccc(C(F)(F)F)c2)C(C(=O)Nc2ccccc2F)C1=O (stereo not drawn)	5
Cc1cccc(NC(=O)C2C(=O)NCC2c2cccc(C(F)(F)F)c2)c1 (stereo not drawn)	20
CN1CC(c2ccc(F)c(F)c2)C(C(=O)Nc2ccccc2F)C1=O (stereo not drawn)	20
O=C1NCC(c2cccc(OC(F)F)c2)C1C(=O)Nc1cccc(F)c1F (stereo not drawn)	20
